pIC50: −log10 of the molar value.
Let's go through some recorded pIC50 values for Acetylcholinesterase (Homo sapiens, UniProt P22303) together.
value-type: pIC50

[[record]]
molecule = "Cc1cc2nc3c(nc2cc1C)C1(C(C#N)=C(N)N2CCNC2=C1[N+](=O)[O-])c1ccccc1-3 (configuration not stated)"
val = 5.18

[[record]]
molecule = "N#CC1=C(N)N(Cc2ccccc2)C(NCc2ccccc2)=C([N+](=O)[O-])C12c1ccccc1-c1nc3ccccc3nc12 (configuration not stated)"
val = 5.28

[[record]]
molecule = "CC1(C)CNC2=C([N+](=O)[O-])C3(C(C#N)=C(N)N2C1)c1ccccc1-c1nc2ccccc2nc13 (configuration not stated)"
val = 5.37

[[record]]
molecule = "N#CC1=C(N)N2CCCNC2=C([N+](=O)[O-])C12c1ccccc1-c1nc3ccc([N+](=O)[O-])cc3nc12 (configuration not stated)"
val = 5.41

[[record]]
molecule = "Cc1cc2nc3c(nc2cc1C)C1(C(C#N)=C(N)N(Cc2ccccc2)C(NCc2ccccc2)=C1[N+](=O)[O-])c1ccccc1-3 (configuration not stated)"
val = 5.24

[[record]]
molecule = "Cc1cc2nc3c(nc2cc1C)C1(C(C#N)=C(N)N2CCCNC2=C1[N+](=O)[O-])c1ccccc1-3 (configuration not stated)"
val = 5.24

[[record]]
molecule = "N#CC1=C(N)N(Cc2ccccc2)C(NCc2ccccc2)=C([N+](=O)[O-])C12c1ccccc1-c1nc3ccc([N+](=O)[O-])cc3nc12 (configuration not stated)"
val = 5.36


----------
- Organism: Homo sapiens
- procedure-text: Selectivity index, ratio of IC50 for acetylcholinesterase (unknown origin) to IC50 for butyrylcholinesterase (unknown origin)
Each entry below lists one item and its recorded Ratio IC50 value.
value-type: Ratio IC50

[[record]]
compound = "Cc1cc2nc3c(nc2cc1C)C1(C(C#N)=C(N)N2CC(C)(C)CNC2=C1[N+](=O)[O-])c1ccccc1-3 (stereo not drawn)"
val = 0.454

[[record]]
compound = "N#CC1=C(N)N2CCNC2=C([N+](=O)[O-])C12c1ccccc1-c1nc3ccc([N+](=O)[O-])cc3nc12 (stereo not drawn)"
val = 0.677

[[record]]
compound = "CC1(C)CNC2=C([N+](=O)[O-])C3(C(C#N)=C(N)N2C1)c1ccccc1-c1nc2ccccc2nc13 (stereo not drawn)"
val = 0.438

[[record]]
compound = "N#CC1=C(N)N2CCCNC2=C([N+](=O)[O-])C12c1ccccc1-c1nc3ccccc3nc12 (stereo not drawn)"
val = 0.411

[[record]]
compound = "Cc1cc2nc3c(nc2cc1C)C1(C(C#N)=C(N)N(Cc2ccccc2)C(NCc2ccccc2)=C1[N+](=O)[O-])c1ccccc1-3 (stereo not drawn)"
val = 0.651

[[record]]
compound = "N#CC1=C(N)N2CCNC2=C([N+](=O)[O-])C12c1ccccc1-c1nc3ccccc3nc12 (stereo not drawn)"
val = 0.761

[[record]]
compound = "N#CC1=C(N)N(Cc2ccccc2)C(NCc2ccccc2)=C([N+](=O)[O-])C12c1ccccc1-c1nc3ccccc3nc12 (stereo not drawn)"
val = 0.616

[[record]]
compound = "N#CC1=C(N)N2CCCNC2=C([N+](=O)[O-])C12c1ccccc1-c1nc3ccc([N+](=O)[O-])cc3nc12 (stereo not drawn)"
val = 0.402

